Values from ChEMBL document CHEMBL1201862

Field: GI50. Provide a value for each of the molecules that follow.
tested on: A498; assay: NCI tumour cell line growth inhibition, 48 h
Active and inactive are the calls of the source. Cut-off read from the data, not from the text of the source: active = GI50 up to about 1.1 µM and inactive = higher.

Illustrative cases are given below, each with its answer.
[[record]]
molecule = "CSc1nc(NC2OCC(O)C(O)C2O)c(N)c(=O)n1C (configuration not stated)"
target_or_system = "A498"
result = "> 100 µM (inactive)"

[[record]]
molecule = "CC1=NN(c2cccc(Cl)c2)C2(SCC(=O)N2c2nc3ccccc3s2)/C1=C\\c1ccc(Cl)cc1 (configuration not stated)"
target_or_system = "A498"
result = "17.3 µM (inactive)"

[[record]]
molecule = "Nc1nc(Cl)cc(NCCCCO)n1"
target_or_system = "A498"
result = "> 100 µM (inactive)"


Here are 4 molecules. What values of GI50 were reported for them?
1. CC(=O)OC1CCC2(C)C(CCC3C4CC=C(C5(C)OCCO5)C4(C)CCC32)C1 (configuration not stated)
2. NNc1nncc2[nH]cnc12
3. O=C([C@H](O)[C@@H](O)c1cccc(Cl)c1)C12CC3CC(CC(C3)C1)C2
4. CCc1cc(Cc2cc(CC)c(NC(=O)C(=O)Cc3ccccn3)c(CC)c2Cl)c(Cl)c(CC)c1NC(=O)C(=O)Cc1ccccn1

1: 24.9 µM (inactive); 2: > 100 µM (inactive); 3: 2.31 µM (inactive); 4: > 100 µM (inactive)

====

test system: NCI/ADR-RES; experiment: NCI tumour cell line growth inhibition, 48 h
Calls of active or inactive are those of the source. No stated cut-off is given here; in the data, active = GI50 up to about 1.1 µM and inactive = higher.
Reply using exactly one outcome from active, inactive

[[record]]
compound = "CC(=O)OC1CCC2(C)C(CCC3C4CC=C(C5(C)OCCO5)C4(C)CCC32)C1 (configuration not stated)"
class = "inactive"

[[record]]
compound = "CN(C)C(=S)/N=c1\\ssc(=S)n1Cc1cccs1"
class = "active"

[[record]]
compound = "COn1oc(=O)c2ccccc21"
class = "inactive"


Which outcome did this test record for the compound COC(=O)c1cc(O)c(O)c(O)c1-c1c(O)c(O)c(O)c(SC[C@H](NC(=O)OCc2ccccc2)C(=O)OCc2ccccc2)c1C(=O)OC ?
inactive

I would be grateful if you could indicate the recorded call for CC12CCC(=O)C=C1CCC1C2CCC2(C)C(C(=O)Cn3cnc4c(=S)nc[nH]c43)CCC12 (configuration not stated) .
inactive

// return assay outcome for S=C(N/N=C(/c1ccccc1)c1ccccn1)Nc1ccc(Cl)cc1
active

I would be grateful if you could indicate the recorded call for CN(C)CCNC(=O)c1ccc(NCCCN(C)CCCNc2ccc3c(=O)n(CCN(C)C)c(=O)n4c5ccccc5c(=O)c2c34)c2c(O)c3ccccc3nc12 .
active

For this compound, state the assay outcome: NC(Cc1c[nH]c2ccc([N+](=O)[O-])cc12)C(=O)O (configuration not stated)
inactive

Could you kindly confirm the outcome this assay logged for C=C1C2CC3CCC2C(OC(=O)c2ccccc2C(=O)O)C13 (configuration not stated) ?
inactive

Called result for COc1ccc(/C=C(\C#N)c2nc3ccccc3c(=O)[nH]2)cc1
inactive

Per the records of this test, what outcome belongs to COC(=O)[C@@](NC(=O)OCc1ccccc1)([C@H](C)O)C(F)(F)F ?
inactive

Please state the recorded outcome for this compound: O=C1NC(=O)C23C(=O)NC(=O)C12C1C=CC3CC1 (configuration not stated)
inactive

What did the test return for Cc1cc(C(=O)CBr)c(CN2C(=O)c3ccccc3C2=O)c(=O)n1C ?
inactive

What outcome does the record of this test show for COc1cc(/C=[N+](\[O-])c2ccccc2Cl)ccc1OC(=S)S ?
inactive

Hi, sorry to bother you, what did the test record for O=S1(=O)c2ccccc2C(Nc2ccccc2)N1c1ccccc1 (configuration not stated) ?
inactive

In this assay, the call recorded for C[C@@H](NC(=O)[C@@H]1C[C@]1(C)COC(=O)c1cc([N+](=O)[O-])cc([N+](=O)[O-])c1)c1cccc2ccccc12 was what?
inactive
